- Tested on: T98G
- ASSAY COMMENT: Cytotoxicity against human T98G cells assessed as reduction in cell viability after 24 hrs by MTT assay
- Format: functional, cell-based
PROPERTY: IC50 (µM)
Report the value in µM with no unit label.

API: value(readout=IC50, system=T98G) for record CC(C)=CCc1c(-c2ccc(O)cc2O)oc2c3c(cc(O)c2c1=O)OC(C)(C)C=C3
24

----------
- ASSAY COMMENT: Cytotoxicity against human U373MG cells assessed as reduction in cell viability after 24 hrs by MTT assay
- Format: functional, cell-based, U-373MG ATCC
- COND: U373 MG
PROPERTY: IC50 (µM)
Please give a number only; it is taken to be in µM.

Form field: reported IC50 of CC(C)=CCc1c(-c2ccc(O)cc2O)oc2c3c(cc(O)c2c1=O)OC(C)(C)C=C3
24

Where these numbers come from: ChEMBL document CHEMBL3797089
